Target: AR (gene 367) (UniProt P10275)
Sequence (P10275 whole entry, looked up): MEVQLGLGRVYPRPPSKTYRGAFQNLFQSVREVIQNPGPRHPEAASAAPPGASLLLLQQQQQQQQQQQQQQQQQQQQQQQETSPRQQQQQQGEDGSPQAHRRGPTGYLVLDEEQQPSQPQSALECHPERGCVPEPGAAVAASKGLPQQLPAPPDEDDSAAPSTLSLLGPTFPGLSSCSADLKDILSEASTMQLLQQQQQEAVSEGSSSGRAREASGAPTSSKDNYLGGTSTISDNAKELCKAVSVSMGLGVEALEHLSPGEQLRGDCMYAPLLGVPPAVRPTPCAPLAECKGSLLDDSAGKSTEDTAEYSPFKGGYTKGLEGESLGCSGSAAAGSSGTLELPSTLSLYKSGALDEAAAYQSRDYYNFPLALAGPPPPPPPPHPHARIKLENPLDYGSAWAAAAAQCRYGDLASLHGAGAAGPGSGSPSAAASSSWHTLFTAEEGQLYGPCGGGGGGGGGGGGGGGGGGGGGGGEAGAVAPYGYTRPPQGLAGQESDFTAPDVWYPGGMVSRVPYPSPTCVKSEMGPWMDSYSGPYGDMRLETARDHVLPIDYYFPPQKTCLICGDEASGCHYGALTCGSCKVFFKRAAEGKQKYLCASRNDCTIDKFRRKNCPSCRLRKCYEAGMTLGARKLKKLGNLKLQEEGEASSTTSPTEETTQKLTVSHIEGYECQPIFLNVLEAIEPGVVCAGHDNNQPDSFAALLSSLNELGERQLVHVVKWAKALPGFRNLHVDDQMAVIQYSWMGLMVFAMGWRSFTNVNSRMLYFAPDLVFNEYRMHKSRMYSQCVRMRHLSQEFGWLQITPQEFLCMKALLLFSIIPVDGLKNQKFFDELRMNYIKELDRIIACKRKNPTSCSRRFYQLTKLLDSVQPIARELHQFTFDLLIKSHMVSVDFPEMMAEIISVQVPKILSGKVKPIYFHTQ
Test: ACEA_AR_agonist_80hr: ACEA Biosciences xCELLigence Real-Time Cell Analysis on Androgen Receptor Agonism for Proliferation (AID 2283783);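 further: hits increase impedance growth signal above DMSO baseline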
Records with an inconclusive call do not appear. Active and inactive are the calls of the source. How the source made its calls: active means hit-call score of the fitted dose curve at least 0.9, where 1 is the maximum; inconclusive means response in the unintended direction; inactive means score below 0.9.
Classes to choose from: active, inactive

>>> group("N#C[C@@H]1CC(F)(F)CN1C(=O)CNC1CC2CCC(C1)N2c1ncccn1 (some centres not stated)")
"inactive"
>>> group("O=c1c(-c2ccc(O)cc2)coc2cc(O)ccc12")
"inactive"
>>> group("Oc1cc2ccccc2c2ccccc12")
"inactive"

Could you now consider this next compound?
Data request: Returns: the outcome recorded for `O=C(/C=C/c1ccc(O)cc1)CC(=O)/C=C/c1ccc(O)cc1` in this assay.
Data returned: inactive
